biological target: T1, human CD33 (full length ECD), recombinant (human, UniProt P20138 18-259); test: SPR (Biacore 8K), antibody captured by anti-human Fc, antigen in solution
T1 construct: extracellular domain; Tag or HSA fusion partner unknown; also called hu CD33 (FL ECD); hCD33-FL ECD
T1 sequence (P20138 18-259): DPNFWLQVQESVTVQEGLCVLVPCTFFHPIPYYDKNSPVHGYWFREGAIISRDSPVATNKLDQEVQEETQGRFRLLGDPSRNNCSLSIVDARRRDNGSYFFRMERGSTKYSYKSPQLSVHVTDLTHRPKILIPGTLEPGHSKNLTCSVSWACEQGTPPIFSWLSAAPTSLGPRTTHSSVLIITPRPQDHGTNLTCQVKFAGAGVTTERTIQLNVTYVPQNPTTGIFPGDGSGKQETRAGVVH
Quick reference: Kd of the listed items.
Use pM as the unit, but write only the number.

Request: Determine from records and report Kd for C33B1601 (antibody, V domains shown) VH: EVQLVESGGGLVRPGGSLKLSCAASGFTFSNYAMSWVRQTPEKRLEWVAGISNSGYSLYYPDTLKGRFTISRDNARNTLYLQMISLRSEDTAMYYCARDGGSYPYAMDYWGHGTSVTVSS VL: DIVMTQSQKFMSTSVGDRVSVTCKASQNVGTYVAWYQQKPGHSPKALIYSASYRYSGVPDRFTGSGSGTDFTLTISNVQSEDLADYFCQQYKSYPLTFGAGTKLELK
Response: 1100

Request: Return Kd for the following binder: C33B1474 (antibody, V domains shown) VH: QVQLVESGGGLVQPGGSLRLSCAASGFTFSSFGMSWVRQAPGKGLEWVANIKRDGSEKYYVDSVKGRFTISRDNAKNSLFLQMSSLRAEDTAVYYCVRDYGYFDFWGQGTLVTVSS VL: DIQMTQSPSSLSASVGDRVTITCQASQAISNYLNWYQQKPGKAPKLLIYDASNLETGVPSRFSGSGSGTDFTFTISSLQPEDFSTYFCQHYDNLPYTFGQGTKLEIK
Response: 2470

Request: Indicate its recorded Kd; the binder in question is C33B919 (antibody, V domains shown) VH: QVQLVESGGGVVQPGRSLRLSCAASGFTFSSYGMHWVRQAPGKGLEWVAVISYDGSNKYYADSVKGRFTISRDNSKNTLYLQMNSLRAEDTAVYYCAKDFRSFDWLPPDSTSYYGMDVWGQGTTVTVSS VL: SYELTQPPSVSVSPGQTASITCSGDKLGDKYVSWYQQKPGQSPVVVIHQDRKRPSGIPERFSGSNFGNTATLTISGTQAMDEADYYCQAWDSSTVVFGGGTKLTVL
Response: 500

Request: Give the reported Kd for this binder. C33B125 (antibody, V domains shown) VH: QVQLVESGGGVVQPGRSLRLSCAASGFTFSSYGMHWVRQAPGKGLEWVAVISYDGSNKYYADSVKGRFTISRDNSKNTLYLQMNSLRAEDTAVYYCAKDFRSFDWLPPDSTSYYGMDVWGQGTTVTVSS VL: SYELTQPPSVSVSPGQTASITCSGDKLGDKYVCWYQQKPGQSPVVVIHQDRKRPSGIPERFSGSNFGNTATLTISGTQAMDEADYYCQAWDSSTVVFGGGTKLTVL
Response: 100

Request: # return recorded Kd for input C33B933 (antibody, V domains shown) VH: QVQLVESGGGVVQPGRSLRLSCAASGFTFSSYGMHWVRQSPGKGLEWVAVISYDGSNKYYADSVKGRFTISRDNSKSTLYLQMNSLRAEDTAVYYCAKDFRSLDWLPPDSTSYDGMDVWGQGTTVTVSS VL: SYELTQPPSVSVSPGQTASITCSGHKLGDKYASWYQQKPGQSPVVVIYKDSKRPSGIPERFSGSNFGNTATLTISGTQAMDEADYYCQAWDSSTVVFGGGTKLTVL
Response: 500

Request: Using the record for C33B1607 (antibody, V domains shown) VH: EVQLQQSGPELVKPGSSVKISCKASGYTFTDYNINWVKQSHGKNLEWIGTINPNNGVTFYNQRFKGQATLTVDKSSSTAYMELRSLTSEDSAVYYCSRDGYDTYYAMDYWGQGTTLTVSS VL: DIVMTQSHKFMSTSVGDRVSITCKASQDVRTAEAWYQQKPGQSPKLLIYSASNRYTGVPDRFTGSGSGTDFTFTISSVQAEDLAVYYCQQYYTTPRTFGGGTKLEIK , state its measured Kd.
Response: 1490

New cases:
Request: Answer with the recorded Kd for the binder listed here: C33B937 (antibody, V domains shown) VH: QVQLVESGGGVVQPGRSLRLSCVASGFTFSSYGMHWVRQAPGKGLEWVAVISYDGSNKYYADSVKGRFTISRDNSKNTLYLQMNSLRAEGTAVYYCAKDFRSFDWLPPDSASYHGMDVWGQGTTVTVSS VL: SYELTQPPSVSVSPGQTASITCSGDKLGDKYASWYQQKPGQSPVLVIYQDGKRPSGIPERFSGSNFGNKATLTISGTQAMDEADYYCQAWDRNTVVFGGGTKLTVL
Response: 300

Every entry's value here was drawn from patent US20230365684A1.
